assay: Selectivity index, ratio of ED50 for human HaCaT cells to MIC for Escherichia coli K-12 W3110 ATCC 27325
Type: toxicity
conditions: read-out: Selectivity Index
Square brackets hold non-standard residues; d marks the D form. Peptide text beside a SMILES is read from it. Gly(N-(CH2)6NH2) = NCCCCCCNCC(=O)O; Gly(N-2-aminoethyl) = NCCNCC(=O)O; Nspe = C[C@H](NCC(=O)O)c1ccccc1; NhArg = N=C(N)NCCCCNCC(=O)O; Nphe = O=C(O)CNCc1ccccc1; Nlys = NCCCCNCC(=O)O
measure_name: selectivity ratio

Examples with their reported selectivity ratio follow.
compound	experimental_result
CC(c1ccccc1)N(CC(=O)N(CCCCN)CC(=O)N(CC(=O)N(CC(=O)N(CCCCN)CC(=O)N(CC(=O)N(CC(N)=O)[C@@H](C)c1ccccc1)Cc1ccc(F)cc1)C(C)c1ccccc1)Cc1ccc(F)cc1)C(=O)CN(Cc1ccc(F)cc1)C(=O)CNCCCCN (single isomer, unassigned)	2
CC(c1ccccc1)N(CC(=O)N(CCCCN)CC(=O)N(CC(=O)N(CC(=O)N(CCCCN)CC(=O)N(CC(=O)N(CC(N)=O)[C@@H](C)c1ccccc1)[C@@H](C)c1ccccc1)Cc1ccc(F)cc1)Cc1ccc(F)cc1)C(=O)CN(C(=O)CN(CCCCN)C(=O)CN(Cc1ccc(F)cc1)C(=O)CN(Cc1ccc(F)cc1)C(=O)CNCCCCN)[C@@H](C)c1ccccc1 (single isomer, unassigned)	13
NCCNCC(=O)N(CC(=O)N(CC(=O)N(CCN)CC(=O)N(CC(=O)N(CC(=O)N(CCN)CC(=O)N(CC(=O)N(CC(N)=O)Cc1ccccc1)Cc1ccccc1)Cc1ccccc1)Cc1ccccc1)Cc1ccccc1)Cc1ccccc1 (H-[Gly(N-2-aminoethyl)][Nphe][Nphe][Gly(N-2-aminoethyl)][Nphe][Nphe][Gly(N-2-aminoethyl)][Nphe][Nphe]-NH2)	1
NCCNCC(=O)N(CC(=O)N(CC(=O)N(CCN)CC(=O)N(CC(=O)N(CC(N)=O)Cc1ccccc1)Cc1ccccc1)Cc1ccccc1)Cc1ccccc1 (H-[Gly(N-2-aminoethyl)][Nphe][Nphe][Gly(N-2-aminoethyl)][Nphe][Nphe]-NH2)	1
C[C@@H](c1ccccc1)N(CC(N)=O)C(=O)CN(C(=O)CN(CCCCN)C(=O)CN(C(=O)CN(C(=O)CN(CCCCN)C(=O)CN(C(=O)CN(C(=O)CN(CCCCNC(=N)N)C(=O)CN(C(=O)CN(C(=O)CNCCCCN)[C@@H](C)c1ccccc1)[C@@H](C)c1ccccc1)[C@@H](C)c1ccccc1)[C@@H](C)c1ccccc1)[C@@H](C)c1ccccc1)[C@@H](C)c1ccccc1)[C@@H](C)c1ccccc1 (H-[Nlys][Nspe][Nspe][NhArg][Nspe][Nspe][Nlys][Nspe][Nspe][Nlys][Nspe][Nspe]-NH2)	2

Now turn to the next compound.
selectivity ratio for NCCCCCCNCC(=O)N(CC(=O)N(CC(=O)N(CCCCCCN)CC(=O)N(CC(=O)N(CC(=O)N(CCCCCCN)CC(=O)N(CC(=O)N(CC(=O)N(CCCCCCN)CC(=O)N(CC(=O)N(CC(N)=O)Cc1ccccc1)Cc1ccccc1)Cc1ccccc1)Cc1ccccc1)Cc1ccccc1)Cc1ccccc1)Cc1ccccc1)Cc1ccccc1 (H-[Gly(N-(CH2)6NH2)][Nphe][Nphe][Gly(N-(CH2)6NH2)][Nphe][Nphe][Gly(N-(CH2)6NH2)][Nphe][Nphe][Gly(N-(CH2)6NH2)][Nphe][Nphe]-NH2) ?
8
